This collection of values is drawn from patent US20220088024A1.

# experiment.description: Example 11: plasma pharmacokinetics (toxicokinetics) of tozadenant in mice after twice daily oral administration
# Type: in vivo, Crl:CD1(ICR) mice
# setup.conditions: female, Crl:CD1(ICR), mouse, plasma, po, 2000 mg/kg/day, Group 5, Female, 2000 mg/kg/day (1000 mg/kg/dose), oral, dosing at 0, 12 hr; read-out: Tmax
attribute.measured: Tmax (h)
Reply with just the number (in h).

Task: Tell me Tmax reported for COc1ccc(N2CCOCC2)c2sc(NC(=O)N3CCC(C)(O)CC3)nc12 [SYN-115]
Output: 1.2

###

# experiment.description: Example 11: plasma pharmacokinetics (toxicokinetics) of tozadenant in mice after twice daily oral administration
# Assay type: in vivo, Crl:CD1(ICR) mice
# setup.conditions: male, Crl:CD1(ICR), mouse, plasma, po, 1000 mg/kg/day, Group 3, Male, 1000 mg/kg/day (500 mg/kg/dose), oral, dosing at 0, 8 hr; read-out: AUC8-24
attribute.measured: AUC (ng·h/mL)
Give your result in ng·h/mL as a bare value.

Task: Assign AUC to the following record: COc1ccc(N2CCOCC2)c2sc(NC(=O)N3CCC(C)(O)CC3)nc12 [SYN-115]
Output: 16100

###

# experiment.description: Example 11: plasma pharmacokinetics (toxicokinetics) of tozadenant in mice after twice daily oral administration
# Format: in vivo, Crl:CD1(ICR) mice
# setup.conditions: male, Crl:CD1(ICR), mouse, plasma, po, 300 mg/kg/day, Group 2, Male, 300 mg/kg/day (150 mg/kg/dose), oral, dosing at 0, 8 hr; read-out: Cmax
attribute.measured: Cmax (ng/mL)
Please give a number only; it is taken to be in ng/mL.

Task: Read the entry COc1ccc(N2CCOCC2)c2sc(NC(=O)N3CCC(C)(O)CC3)nc12 [SYN-115] and write its reported Cmax.
Output: 1720

###

# experiment.description: Example 12: pharmacokinetics of tozadenant tablets (180 mg single dose, bioequivalence study) in humans
# Assay type: in vivo
# setup.conditions: both sexes, plasma, oral, 180 mg (approximately 2.6 mg/kg in 70 kg human)
attribute.measured: AUC
Report field: quantity (unit follows the number).

Task: Find the measured AUC of COc1ccc(N2CCOCC2)c2sc(NC(=O)N3CCC(C)(O)CC3)nc12 [SYN-115] and report it.
Output: 20600 ng·h/mL

###

# experiment.description: Example 11: plasma pharmacokinetics (toxicokinetics) of tozadenant in mice after twice daily oral administration
# Format: in vivo, Crl:CD1(ICR) mice
# setup.conditions: male, Crl:CD1(ICR), mouse, plasma, po, 300 mg/kg/day, Group 2, Male, 300 mg/kg/day (150 mg/kg/dose), oral, dosing at 0, 8 hr; read-out: Tmax
attribute.measured: Tmax
Number first, unit second: that is the form wanted.

Task: Let me know recorded Tmax for COc1ccc(N2CCOCC2)c2sc(NC(=O)N3CCC(C)(O)CC3)nc12 [SYN-115] , thanks.
Output: 8.8 h

###

# experiment.description: Example 11: plasma pharmacokinetics (toxicokinetics) of tozadenant in mice after twice daily oral administration
# Type: in vivo, Crl:CD1(ICR) mice
# setup.conditions: female, Crl:CD1(ICR), mouse, plasma, po, 2000 mg/kg/day, females, 0, 12 hour dosing; read-out: Tmax (following the first dose)
attribute.measured: Tmax (h)
Write the number in h without appending the unit.

Task: Name the recorded Tmax of the item COc1ccc(N2CCOCC2)c2sc(NC(=O)N3CCC(C)(O)CC3)nc12 [SYN-115] in your answer.
Output: 1.2

###

# experiment.description: Example 11: plasma pharmacokinetics (toxicokinetics) of tozadenant in mice after twice daily oral administration
# Assay type: in vivo, Crl:CD1(ICR) mice
# setup.conditions: male, Crl:CD1(ICR), mouse, plasma, po, 2000 mg/kg/day, Group 5, Male, 2000 mg/kg/day (1000 mg/kg/dose), oral, dosing at 0, 12 hr; read-out: t1/2 (converted)
attribute.measured: half-life

Task: Using the record for COc1ccc(N2CCOCC2)c2sc(NC(=O)N3CCC(C)(O)CC3)nc12 [SYN-115] , state its measured half-life.
Output: 1.36 h

###

# experiment.description: Example 11: plasma pharmacokinetics (toxicokinetics) of tozadenant in mice after twice daily oral administration
# Format: in vivo, Crl:CD1(ICR) mice
# setup.conditions: male, Crl:CD1(ICR), mouse, plasma, po, 1000 mg/kg/day, Group 3, Male, 1000 mg/kg/day (500 mg/kg/dose), oral, dosing at 0, 8 hr; read-out: Tmax
attribute.measured: Tmax (h)
Number only, in h; omit the unit.

Task: Entry COc1ccc(N2CCOCC2)c2sc(NC(=O)N3CCC(C)(O)CC3)nc12 [SYN-115] needs its Tmax filled in; supply it.
Output: 10.2

###

# experiment.description: Example 11: plasma pharmacokinetics (toxicokinetics) of tozadenant in mice after twice daily oral administration
# Type: in vivo, Crl:CD1(ICR) mice
# setup.conditions: male, Crl:CD1(ICR), mouse, plasma, po, 2000 mg/kg/day, males, 0, 12 hour dosing; read-out: Tmax (following the first dose)
attribute.measured: Tmax (h)
Report only the number, with the unit h understood.

Task: Quote Tmax reported for COc1ccc(N2CCOCC2)c2sc(NC(=O)N3CCC(C)(O)CC3)nc12 [SYN-115] please.
Output: 1.1

###

# experiment.description: Example 11: plasma pharmacokinetics (toxicokinetics) of tozadenant in mice after twice daily oral administration
# Assay type: in vivo, Crl:CD1(ICR) mice
# setup.conditions: female, Crl:CD1(ICR), mouse, plasma, po, 2000 mg/kg/day, Group 5, Female, 2000 mg/kg/day (1000 mg/kg/dose), oral, dosing at 0, 12 hr; read-out: AUC0-12
attribute.measured: AUC(0-t) (ng·h/mL)
Report the value in ng·h/mL with no unit label.

Task: Give recorded AUC(0-t). COc1ccc(N2CCOCC2)c2sc(NC(=O)N3CCC(C)(O)CC3)nc12 [SYN-115]
Output: 35500

###

# experiment.description: Example 11: plasma pharmacokinetics (toxicokinetics) of tozadenant in mice after twice daily oral administration
# Type: in vivo, Crl:CD1(ICR) mice
# setup.conditions: male, Crl:CD1(ICR), mouse, plasma, po, 2000 mg/kg/day, Group 5, Male, 2000 mg/kg/day (1000 mg/kg/dose), oral, dosing at 0, 12 hr; read-out: AUC0-24
# Description: The plasma pharmacokinetics and exposure levels of tozadendant have been documented in mice after oral administration, the same route of administration as tozadenant was dosed in the oncology efficacy studies. […] Centrifugation was carried out at approximately 4-8° C. within one hour of collection. […] Samples were analyzed at Covance. Tozadenant was quantitated using protein precipitation followed by liquid chromatography mass spectrometry technique for quantification. […]
attribute.measured: AUC(0-t) (µg·h/mL)
Field: numeric (µg·h/mL). Do not append units.

Task: Please supply the value of reported AUC(0-t) for the item COc1ccc(N2CCOCC2)c2sc(NC(=O)N3CCC(C)(O)CC3)nc12 [SYN-115]
Output: 31.1

###

# experiment.description: Example 11: plasma pharmacokinetics (toxicokinetics) of tozadenant in mice after twice daily oral administration
# Type: in vivo, Crl:CD1(ICR) mice
# setup.conditions: male, Crl:CD1(ICR), mouse, plasma, po, 2000 mg/kg/day, Group 4, Male, 2000 mg/kg/day (1000 mg/kg/dose), oral, dosing at 0, 8 hr; read-out: AUC0-24
attribute.measured: AUC(0-t) (µg·h/mL)
Return type: number; implicit unit µg·h/mL.

Task: Item COc1ccc(N2CCOCC2)c2sc(NC(=O)N3CCC(C)(O)CC3)nc12 [SYN-115] : provide AUC(0-t)
Output: 43

###

# experiment.description: Example 11: plasma pharmacokinetics (toxicokinetics) of tozadenant in mice after twice daily oral administration
# Type: in vivo, Crl:CD1(ICR) mice
# setup.conditions: male, Crl:CD1(ICR), mouse, plasma, po, 2000 mg/kg/day, Group 5, Male, 2000 mg/kg/day (1000 mg/kg/dose), oral, dosing at 0, 12 hr; read-out: AUC12-24
# Procedure: The plasma pharmacokinetics and exposure levels of tozadendant have been documented in mice after oral administration, the same route of administration as tozadenant was dosed in the oncology efficacy studies. […] Centrifugation was carried out at approximately 4-8° C. within one hour of collection. […] Samples were analyzed at Covance. Tozadenant was quantitated using protein precipitation followed by liquid chromatography mass spectrometry technique for quantification. […]
attribute.measured: AUC (ng·h/mL)
Respond with the bare value in ng·h/mL.

Task: Tell me its AUC given COc1ccc(N2CCOCC2)c2sc(NC(=O)N3CCC(C)(O)CC3)nc12 [SYN-115] as the entry.
Output: 13300

###

# experiment.description: Example 11: plasma pharmacokinetics (toxicokinetics) of tozadenant in mice after twice daily oral administration
# Format: in vivo, Crl:CD1(ICR) mice
# setup.conditions: male, Crl:CD1(ICR), mouse, plasma, po, 1000 mg/kg/day, Group 3, Male, 1000 mg/kg/day (500 mg/kg/dose), oral, dosing at 0, 8 hr; read-out: AUC0-24
attribute.measured: AUC(0-t) (ng·h/mL)
Unit ng·h/mL implied. Number only.

Task: Identify AUC(0-t) associated with the compound COc1ccc(N2CCOCC2)c2sc(NC(=O)N3CCC(C)(O)CC3)nc12 [SYN-115]
Output: 29900
